System: microbiota present in the faecal samples
procedure_details: Faecal fermentation, distribution of oligosaccharides (HPAEC-PAD peak areas)
test_settings: Comp. Ex. 1 sample, 48 h, Donor C
readout_kind: Peak areas
Reply: number alone, nothing else.

// worked examples, Peak areas included
{"compound": "OC[C@H]1O[C@@H](O[C@H]2[C@@H](O)[C@@H](CO)O[C@@H](O[C@H]3[C@@H](O)[C@@H](CO)O[C@@H](O[C@H]4[C@H](O)[C@@H](O)C(O)O[C@@H]4CO)[C@@H]3O)[C@@H]2O)[C@H](O)[C@@H](O)[C@H]1O (stereo partly drawn) [Cpd. ID 31]", "assayed_target": "microbiota present in the faecal samples", "Peak areas": 0.0}
{"compound": "OC[C@H]1O[C@@H](O[C@H]2[C@@H](O)[C@@H](CO)O[C@@H](O[C@H]3[C@H](O)[C@@H](O)C(O)O[C@@H]3CO)[C@@H]2O)[C@H](O)[C@@H](O)[C@H]1O (stereo partly drawn) [Cpd. ID 12, D-Gal-(β1-3)-D-Gal-(β1-4)-D-Glu]", "assayed_target": "microbiota present in the faecal samples", "Peak areas": 0.1}
{"compound": "OC[C@H]1O[C@@H](OC[C@H]2OC(O)[C@H](O)[C@@H](O)[C@@H]2O)[C@H](O)[C@@H](O)[C@H]1O (stereo partly drawn) [Allolactos, Allolactose]", "assayed_target": "microbiota present in the faecal samples", "Peak areas": 0.0}

Challenge: Look up Peak areas for this compound: OC[C@H]1O[C@@H](O[C@H]2[C@@H](O)[C@@H](CO)O[C@@H](O[C@H]3[C@H](O)[C@@H](CO)OC(O)[C@@H]3O)[C@@H]2O)[C@H](O)[C@@H](O)[C@H]1O (stereo partly drawn) [Cpd. ID 29, D-Gal-(β1-3)-D-Gal-(β1-3)-D-Glu]
Response given: 0.0

Challenge: Item under review: O=C[C@H](O)[C@@H](O)[C@@H](O)[C@H](O)CO [Galactose] . Reported Peak areas?
Response given: 0.0

Challenge: Using the record for OC[C@H]1O[C@@H](O[C@H]2[C@H](O)[C@@H](O)C(O)O[C@@H]2CO)[C@H](O)[C@@H](O)[C@H]1O (stereo partly drawn) [Lactose] , report its Peak areas.
Response given: 0.3
